Test system: MS2 coat protein
experiment description: apparent KD of MS2 coat protein, switch ON state; designed switch direction (-1 OFF switch, 1 ON switch): -1; higher = weaker reporter binding
measurement setup: FMN input: 0 or 200 uM; Eterna round: R93 (includes R88 designs)
measured quantity: apparent KD of MS2 coat protein
The answer should read as a number with its unit following.

I need apparent KD of MS2 coat protein for every entry listed below, if you could help.
1. GAAAAGUUAGGAUAUACAGAUAAAAAAACGAAAAAAAAUCUGUAGAAGGAACAUGAGGAUCACCCAUGUAAAAG [Mat - Exclusion 4 - Mayanna - D103]
2. AGCAAGUUAGGAUAUGCGAAGUCAGGACACACACUGACGAAGCAGAAGGAACAUGAGGAUCACCCAUGUAAGCA [JR_Exclusion-4 65% 4]
3. AAAAAGUGAGGAUAUGGUAAAAAAAAAAAAAAAAAAAACCUCCAGAAGGCACAUGAGGAUCACCCAUGUAAAAA [Jolly's Folly 2 - Jieux - Exclusion 4]
4. AGUUGGCGAGGAUAUACAUGAGGAUCACCCAUGUGAAAGAAAAAAGUGAAAAAGCAAAGUAGAAGGCGCUGACA [73%, Moding Norbert Elias, 5]
5. AGCUAGUCAGGAUAUACGAGAAUGACAAAAGACGUGAAGGGACAUGAGGAUCACCCAUGUAGAAGGGACUAGCA [Diamond 24]
6. CUCUUGUCAGGAUAUCCAAGAAAAGAAAAGAAAGAAAAGAAGGAGAAGGGACAUGAGGAUCACCCAUGUAAGAA [EteRNA is fun!]

Result:
1. 34.7 nM
2. 22 nM
3. 75.8 nM
4. 34.9 nM
5. 39.2 nM
6. 72.3 nM

* * *

Tested on: K4 kissing-loop RNA reporter
experiment description: apparent KD of K4 kissing-loop reporter; higher = weaker reporter binding
measurement setup: Eterna round: R107; input ligand: theophylline 20 uM
measured quantity: apparent KD of K4 kissing-loop reporter

Observe how each entry below is paired with its result.
{"columns": ["residue string", "target system", "apparent KD of K4 kissing-loop reporter"],
 "data": [
  ["UUUGGUUGUGGUGUUGAUUAGGGAGCGGAAGGAGCGCCGAGGAGGGCAGGUAGGUCGCCGGAAUGUAGUGAUGUUGCAUAGAGGU [ExArgA.Ad]", "K4 kissing-loop RNA reporter", "603 nM"],
  ["GACUGGAGUGAUGUUCCAUUAACGAUCCUACGAGGACCGGUACGGCCGCCACUCGAAAUGCAGUGAUGUUGCAGCCAGCCGUACU [Exclusion Trptophan A GF 8]", "K4 kissing-loop RNA reporter", "192 nM"],
  ["GUUGUCUACCAGAGGUGAUGUAUAGUAUCGCGAGGACCGGUACGGCCGCCACUCGUGAAGAGAAAGGAGUGAUGUUCCGUAAUGG [C10]", "K4 kissing-loop RNA reporter", "301 nM"],
  ["AAUAAGUGUCAGCGAGUGAUGUUCGACGAUACCAGACUCGAUAGAGUCCCUUGGCAGCGUAACGCAUGCCAAACUGGCACAAUAA [#SwitchBubble 8 #K4Early]", "K4 kissing-loop RNA reporter", "507 nM"],
  ["ACGUAGUUCUAGGAUACCAGCCAAGGAGCGCAGGACAAAAGUCCUGCCGCCAGUGAUGUUGGCCCUUGGCAGCCUAGAACUACGA [Omei KL Theo B Exc B v1]", "K4 kissing-loop RNA reporter", "165 nM"]
]}

Q: # return apparent KD of K4 kissing-loop reporter of GAUUCAGUGAUGUUGGAAGGCGAGCGGGAUACCAGCCGAGACUCAGGCCCUUGGCAGCCCACAUAUCCCAGGUAGAUAGUAGAUC [Same State - Theophylline A (Freestyle 8)] (system: K4 kissing-loop RNA reporter)
Result: 166 nM

* * *

Provide the recorded apparent KD of K4 kissing-loop reporter for the entries that follow.
System: K4 kissing-loop RNA reporter;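 also: bound reporter read as fluorescence of individual clusters on recovered sequencing chips by microscopy, with normalized cluster intensities fitted with a binding model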
experiment description: apparent KD of K4 kissing-loop reporter; higher = weaker reporter binding
measurement setup: Eterna round: R107; input ligand: FMN 200 uM
Numbers only, in nM.

{"columns": ["residue string", "apparent KD of K4 kissing-loop reporter (nM)"],
 "data": [
  ["UAACUGCAGUGAUGUUGCAGAUGUCCUGACUAGGAUAUCAGGAAACUGAGAAGGAGUGCCUUCUAAACAUCACAGAAGGUGGACA [KL-SSFMN-A28]", 360],
  ["GAGGGCCCUGUAGGAUAUGAGUCUAGUGAUGUUAGGCGGUCCAUGCGCGUGGCGCGUUAUGCCCUUUUAGAAGGACAGGGCUCUC [#2 Exclusion - FMN B Attempt #21 (HarryS)]", 109]
]}

Please find the next sequence below.
Q: Supply recorded apparent KD of K4 kissing-loop reporter for AGUGAUGUGGGAAGGAGCGGUUAAUGAAUUCAGUGAUGUUGAAGUGAUGCUGAAAUGAUGUGCCAGGUAGGUCGCCUAGAUGUUA [KL-XARG B28] here.
Result: 308

* * *

Test system: MS2 coat protein
experiment description: apparent KD of MS2 coat protein, switch ON state; designed switch direction (-1 OFF switch, 1 ON switch): -1; higher = weaker reporter binding
measurement setup: FMN input: 0 or 200 uM; Eterna round: R93 (includes R88 designs)
Entry flag: Criterion met if apparent KD of MS2 coat protein reaches 0.03 µM; Criterion not met if it does not.

Use these answered entries as a reference point.
{"columns": ["residue string", "label class"],
 "data": [
  ["AAAAAACAUGAGGAUCACCCAUGUGAGGAUAUGACGUAAAUAAAGAAAGAAGAAAUCGUCAGAAGGCACACCUA [Disincluded 2 (MS2 Riboswitches)]", "Criterion not met"],
  ["AAAAGGAAAGGAUAUGCAGACUGGGUCACCCAGAUGUAUGAACAUGAGGAUCACCCAUGUAGAAGGUUCAAAAG [Ribiquon]", "Criterion met"]
]}

Q: Textbook exercise: given the entry AAGAAGCAAGGAUAUACAUGAGGAUCACCCAUGUAAAAGAAAGAAAAGGGAAAGAAAAGUAGAAGGUGCAAGAA [Menmaatre Seti I] , state whether its apparent KD of MS2 coat protein is greater than or equal to 0.03 µM.
Result: Criterion not met

Q: # bool: apparent KD of MS2 coat protein of AAAAGUACAGGAUAUACAUGAGGAUCACCCAUGUGAAAAUUAAGUGGCGUACAACAAAGUAGAAGGGUACUGGA [Ruby 52] >= 0.03 µM
Result: Criterion not met

Q: Quick check, apparent KD of MS2 coat protein >= 0.03 µM? AAAAAAGCAGGAUAUACGAACAUGUCAAAAGACGUGAAGGGACAUGAGGAUCACCCAUGUAGAAGGGUUAAAAA [JL Stem Breaker 5]
Result: Criterion met

Q: Item AGCUAGUCAGGAUAUACGAAAAUGACAGAAGACGUAAGGGAACAUGAGGAUCACCCAUGUAGAAGGGACUAGCA [Diamond 42] with apparent KD of MS2 coat protein of 0.03 µM or above?
Result: Criterion not met

Q: Textbook exercise: given the entry GUCAGCUGAGGAUAUACAGGUGAUGCCGCAUAACAAAAUAUACAUGAGGAUCACCCAUGUAGAAGGCGGAAGAC [Zalaa] , state whether its apparent KD of MS2 coat protein is greater than or equal to 0.03 µM.
Result: Criterion met

* * *

Tested on: MS2 coat protein
experiment description: apparent KD of MS2 coat protein; designed switch direction (-1 OFF switch, 1 ON switch): -1; higher = weaker reporter binding
measurement setup: Eterna round: R95; input ligand: microRNA oligo, concentration not stated
Outcome label depends on apparent KD of MS2 coat protein relative to 30 nM: at/above gives Met, below gives Not met.

These solved cases illustrate the format of a correct answer.
{"columns": ["residue string", "label class"],
 "data": [
  ["GCACGGUAAGUGAGGAUAUACCUCUGGAUACAGAGGUAGAAGGCACAUGAGGAUCACCCAUGUCUAUACCGUGC [Fiskers BMX 4 - 81] (puzzle: Brourd's mod of Exclusion 4)", "Not met"],
  ["AGUACUAUCACGAAAGUGAUAGUACAAUAAGCUUGUGGAACAUGAGGAUCACCCAUGUCCUCAUAAGCUCGUCUUAU [Mat - Sensor v3 - Turn-off var 2 - D27] (puzzle: Sensor v3, turn-off variant 2)", "Met"],
  ["GCACGGUAAGUGAGGAUAUACCUCUGGAUACAGAGGUAGAAGGCACAUGAGGAUCACCCAUGUUCCUGCCGUGC [Fiskers BMX 4 - 89] (puzzle: Brourd's mod of Exclusion 4)", "Not met"]
]}

Q: Please indicate if the recorded apparent KD of MS2 coat protein for UGCAUGCUAGGAUAUACGGGACAUUAGGGUUCGUUGUAUGGACAUGAGGAUCACCCAUGUAGAAGGAGCGUGCU [Mod5 of JL-ex2-2.15 mat747 mod] (puzzle: Exclusion 2) meets or exceeds 30 nM.
Result: Not met
